These measurements were taken from the Immune Epitope Database (IEDB).

- target-of-assay: HLA-B*07:02
- measurement-protocol: IEDB peptide-MHC binding, purified MHC/direct/fluorescence; filed as Kd, often an IC50 or EC50 that approximates it; bounds were set here for any values at or beyond the usual limits of such assays
- cond: source organism: Yersinia pestis
assay-readout: Kd

Kd in this record for STFAASGPF : ≥ 20 µM

* * *

- target-of-assay: HLA-A*02:03
- measurement-protocol: IEDB peptide-MHC binding, purified MHC/direct/fluorescence; filed as Kd, often an IC50 or EC50 that approximates it; bounds were set here for any values at or beyond the usual limits of such assays
- cond: source organism: Influenza A virus H3N2
assay-readout: pKd
Would you please state pKd, meaning minus log10 of the concentration in mol/L, as a bare number?

Measured pKd (HLA-A*02:03), entry VTTEVAFGL : 6.29

* * *

- target-of-assay: HLA-B*45:06
- measurement-protocol: IEDB peptide-MHC binding, purified MHC/competitive/fluorescence; filed as Kd, often an IC50 or EC50 that approximates it; bounds were set here for any values at or beyond the usual limits of such assays
- cond: source organism: Listeria monocytogenes serotype 4b str. CLIP 80459
pKd: −log10 of the molar value.
assay-readout: pKd

Measured pKd (HLA-B*45:06), entry YTYDLAEYR : ≤ 5.30

* * *

- target-of-assay: HLA-B*53:01
- measurement-protocol: IEDB peptide-MHC binding, purified MHC/competitive/radioactivity; filed as Kd, often an IC50 or EC50 that approximates it; bounds were set here for any values at or beyond the usual limits of such assays
- cond: source organism: Dengue virus 3 Singapore/8120/1995
assay-readout: pKd
Would you please state pKd, meaning minus log10 of the concentration in mol/L, as a bare number?

pKd in this record for VMEITAEWLW : 5.99

* * *

- target-of-assay: HLA-A*03:01
- measurement-protocol: IEDB peptide-MHC binding, purified MHC/competitive/radioactivity; filed as Kd, often an IC50 or EC50 that approximates it; bounds were set here for any values at or beyond the usual limits of such assays
- cond: source organism: Vaccinia virus WR
# maps each entry to its pKd
Would you please state pKd, meaning minus log10 of the concentration in mol/L, as a bare number?

Use the examples below as a reference point.
{"residue-codes": "SSPPIPMSR", "pKd": 5.14}
{"residue-codes": "WIQYDKHCY", "pKd": 5.24}
{"residue-codes": "KSVTKSSSWK", "pKd": 8.00}

Moving on to another sequence below.
Measured pKd (HLA-A*03:01), entry RLSILSKDK : 6.21

* * *

- target-of-assay: HLA-A*02:01
- measurement-protocol: IEDB peptide-MHC binding, purified MHC/competitive/fluorescence; filed as Kd, often an IC50 or EC50 that approximates it; bounds were set here for any values at or beyond the usual limits of such assays
- cond: source organism: Vaccinia virus WR
pKd: −log10 of the molar value.
assay-readout: pKd

pKd in this record for KVFDKSLLY : ≤ 4.70

* * *

- target-of-assay: HLA-B*57:01
- measurement-protocol: IEDB peptide-MHC binding, purified MHC/competitive/fluorescence; filed as Kd, often an IC50 or EC50 that approximates it; bounds were set here for any values at or beyond the usual limits of such assays
- cond: source organism: Orthohantavirus sinnombreense
assay-readout: Kd

Measured Kd (HLA-B*57:01), entry HTVGLGQGY : ≥ 20 µM

* * *

- target-of-assay: HLA-B*08:01
- measurement-protocol: IEDB peptide-MHC binding, purified MHC/direct/fluorescence; filed as Kd, often an IC50 or EC50 that approximates it; bounds were set here for any values at or beyond the usual limits of such assays
- cond: source organism: Rickettsia felis
pKd: −log10 of the molar value.
assay-readout: pKd

pKd in this record for GSFKEYVFW : ≤ 4.70

* * *

- target-of-assay: HLA-A*68:01
- measurement-protocol: IEDB peptide-MHC binding, purified MHC/competitive/radioactivity; filed as Kd, often an IC50 or EC50 that approximates it; bounds were set here for any values at or beyond the usual limits of such assays
- cond: source organism: Variola virus
assay-readout: Kd

Kd in this record for AVFKNSFLGK : ≥ 70.1 µM

* * *

- target-of-assay: HLA-A*02:01
- measurement-protocol: IEDB peptide-MHC binding, purified MHC/direct/fluorescence; filed as Kd, often an IC50 or EC50 that approximates it; bounds were set here for any values at or beyond the usual limits of such assays
- cond: source organism: Orthohantavirus andesense
pKd: −log10 of the molar value.
assay-readout: pKd

pKd in this record for SIKFKRKLM : ≤ 4.70

* * *

- target-of-assay: HLA-A*03:01
- measurement-protocol: IEDB peptide-MHC binding, purified MHC/direct/fluorescence; filed as Kd, often an IC50 or EC50 that approximates it; bounds were set here for any values at or beyond the usual limits of such assays
- cond: source organism: Orthohantavirus andesense
assay-readout: Kd

Kd in this record for SIKFKRKLM : ≥ 20 µM

* * *

# maps each entry to its pKd
- target-of-assay: HLA-B*40:01
- measurement-protocol: IEDB peptide-MHC binding, purified MHC/competitive/radioactivity; filed as Kd, often an IC50 or EC50 that approximates it; bounds were set here for any values at or beyond the usual limits of such assays
- cond: source organism: Dengue virus 2 Jamaica/1409/1983
Would you please state pKd, meaning minus log10 of the concentration in mol/L, as a bare number?

Use the examples below as a reference point.
{"residue-codes": "AEPPFGDSYI", "pKd": 5.70}
{"residue-codes": "KEENLVNSL", "pKd": 8.66}

pKd in this record for KEIGRMLNIL : 8.32

pKd in this record for FEKQLGQVML : 6.89

pKd in this record for SEFQIYKKSG : 6.39

* * *

- target-of-assay: HLA-A*02:01
- measurement-protocol: IEDB peptide-MHC binding, purified MHC/direct/fluorescence; filed as Kd, often an IC50 or EC50 that approximates it; bounds were set here for any values at or beyond the usual limits of such assays
- cond: source organism: Yersinia pestis
assay-readout: Kd

Measured Kd (HLA-A*02:01), entry STFAASGPF : ≥ 20 µM

* * *

- target-of-assay: HLA-B*07:02
- measurement-protocol: IEDB peptide-MHC binding, purified MHC/direct/fluorescence; filed as Kd, often an IC50 or EC50 that approximates it; bounds were set here for any values at or beyond the usual limits of such assays
- cond: source organism: Ovis aries
assay-readout: pKd
Would you please state pKd, meaning minus log10 of the concentration in mol/L, as a bare number?

pKd in this record for RVLTARKTV : 6.38

* * *

- target-of-assay: HLA-A*24:02
- measurement-protocol: IEDB peptide-MHC binding, purified MHC/competitive/fluorescence; bounds were set here for any values at or beyond the usual limits of such assays
- cond: source organism: Zaire ebolavirus
# maps each entry to its pIC50
Would you please state pIC50, meaning minus log10 of the concentration in mol/L, as a bare number?

Use the examples below as a reference point.
{"residue-codes": "DFQESADSF", "target-of-assay": "HLA-A*24:02", "pIC50": 4.26}
{"residue-codes": "AAPDGIRGF", "target-of-assay": "HLA-A*24:02", "pIC50": 4.16}
{"residue-codes": "THNTPVYKL", "target-of-assay": "HLA-A*24:02", "pIC50": 4.75}
{"residue-codes": "KVQRQIQVH", "target-of-assay": "HLA-A*24:02", "pIC50": 4.81}
{"residue-codes": "VNPEIDTTI", "target-of-assay": "HLA-A*24:02", "pIC50": 4.79}
{"residue-codes": "QFLSFASLF", "target-of-assay": "HLA-A*24:02", "pIC50": 7.89}
{"residue-codes": "PYFGPAAEG", "target-of-assay": "HLA-A*24:02", "pIC50": 4.89}
{"residue-codes": "SRFTPQFLL", "target-of-assay": "HLA-A*24:02", "pIC50": 5.76}
{"residue-codes": "LGVIHNSTL", "target-of-assay": "HLA-A*24:02", "pIC50": 4.29}
{"residue-codes": "ATDVPSATK", "target-of-assay": "HLA-A*24:02", "pIC50": 4.19}

pIC50 in this record for SFKAALSSL : 6.18

pIC50 in this record for VQLESRFTP : 4.23

* * *

- target-of-assay: HLA-A*03:01
- measurement-protocol: IEDB peptide-MHC binding, purified MHC/direct/fluorescence; filed as Kd, often an IC50 or EC50 that approximates it; bounds were set here for any values at or beyond the usual limits of such assays
- cond: source organism: Influenza A virus (A/swine/Bakum/5/95(H1N1))
assay-readout: Kd (µM)
Output spec: scalar in µM, unitless text.

Kd in this record for GINDRNFWR : 4.14

* * *

- target-of-assay: HLA-B*15:01
- measurement-protocol: IEDB peptide-MHC binding, purified MHC/direct/fluorescence; filed as Kd, often an IC50 or EC50 that approximates it; bounds were set here for any values at or beyond the usual limits of such assays
- cond: source organism: Pasteurella multocida
assay-readout: Kd (nM)
Output spec: scalar in nM, unitless text.

Kd in this record for SQLEMCEKY : 299
